Kd values for the molecules below.
SUBJECT OF TEST: GDP-bound KRAS wild-type protein (Homo sapiens)
Sequence (P01116 whole entry): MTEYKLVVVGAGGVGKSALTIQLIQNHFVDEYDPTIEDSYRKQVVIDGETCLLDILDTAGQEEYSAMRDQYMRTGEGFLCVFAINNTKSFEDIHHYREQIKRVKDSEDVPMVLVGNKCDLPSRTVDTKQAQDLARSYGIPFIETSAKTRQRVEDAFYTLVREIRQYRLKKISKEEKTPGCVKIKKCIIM
EXPERIMENTAL PROTOCOL: Binding to KRAS by surface plasmon resonance (SPR), Single Cycle Kinetics
PROTOCOL CONDITIONS: SPR, Single Cycle Kinetics, 1:1 binding model; GDP-bound KRAS wild-type protein; read-out: KRAS KD
Give a bare numeral; the unit nM is implied.

Return value of Kd for input CCO[C@@H]1C[C@H]2C(=O)NC3(CCC3)C(=O)N(C)[C@@H](C3CCCC3)C(=O)N(C)[C@H](C(=O)N(C)C)CC(=O)N(C)[C@@H](CC3CCCC3)C(=O)N[C@@H]([C@@H](C)CC)C(=O)N(C)CC(=O)N(C)[C@H]3C/C=C\CCN(C3=O)[C@@H](Cc3ccc(C(F)(F)F)cc3)C(=O)N(C)CC(=O)N[C@@H](CCc3ccc(C(F)(F)F)c(OC)c3)C(=O)N2C1 [PP1248] , no commentary.
0.069

Return value of Kd for input CC[C@H](C)[C@@H]1NC(=O)[C@H](CC2CCCC2)N(C)C(=O)C[C@@H](C(=O)N(C)C)N(C)C(=O)[C@@H](C2CCCC2)N(C)C(=O)C2(CCC2)NC(=O)[C@@H]2[C@@H](OCC(F)F)CCN2C(=O)[C@@H](CCc2cc(F)c(C(F)(F)F)c(F)c2)NC(=O)CN(C)C(=O)[C@@H](Cc2ccc(C)cc2)N2CC/C=C\C[C@H](C2=O)N(C)C(=O)CN(C)C1=O [PP1536] , no commentary.
0.2

====

pKd values for the molecules below.
SUBJECT OF TEST: UniProtKB P01116
EXPERIMENTAL PROTOCOL: Binding to KRAS by surface plasmon resonance (SPR), Single Cycle Kinetics
PROTOCOL CONDITIONS: SPR, Single Cycle Kinetics, GDP-bound KRAS wild-type protein; read-out: KRAS KD
Conceptually, pKd converts a concentration in mol/L into minus its log10.

Here's what some known entries look like.
{"CHEMICAL STRUCTURE": "C#CC[C@H]1C(=O)N[C@@H]([C@@H](C)CC)C(=O)N(C)CC(=O)N(C)[C@H]2C/C=C\\CCN(C2=O)[C@@H](Cc2ccc(C(F)(F)F)cc2)C(=O)N(C)CC(=O)N[C@@H](CCc2cc(F)c(C(F)(F)F)c(F)c2)C(=O)N2C[C@H](OCC)C[C@H]2C(=O)NC2(CC(C)(C)C2)C(=O)N(C)[C@@H](C2CCCC2)C(=O)N(C)[C@H](C(=O)N(C)CCC)CC(=O)N1C", "pKd": 9.96}
{"CHEMICAL STRUCTURE": "CCC[C@H]1C(=O)N[C@@H]([C@@H](C)CC)C(=O)N(C)CC(=O)N(C)[C@H]2C/C=C\\CCN(C2=O)[C@@H](Cc2ccc(C(F)(F)F)cc2)C(=O)N(C)CC(=O)N[C@@H](CCc2cc(F)c(C(F)(F)F)c(F)c2)C(=O)N2C[C@H](OCC)C[C@H]2C(=O)N(C)C2(CCC2)C(=O)N(C)[C@@H](C2CCCC2)C(=O)N(C)[C@H](C(=O)N2CCCCC2)CC(=O)N1C", "pKd": 9.92}

Next molecule, please.
Report pKd under test system UniProtKB P01116 for CCO[C@@H]1C[C@H]2C(=O)NC3(CC(C)(C)C3)C(=O)N(C)[C@@H](C(CC)CC)C(=O)N(C)[C@H](C(=O)N(C)C)CC(=O)N(C)[C@@H](CC)C(=O)N[C@@H]([C@@H](C)CC)C(=O)N(C)CC(=O)N(C)[C@H]3C/C=C\CCN(C3=O)[C@@H](Cc3ccc(C)cc3)C(=O)N(C)CC(=O)N[C@@H](CCc3ccc(C(F)(F)F)c(OC)c3)C(=O)N2C1 .
9.48
